Test system: RAW264.7
Assay Remarks: Antiinflammatory activity in mouse RAW264.7 cells assessed as inhibition of LPS-stimulated TNF-alpha production at 6.0 uM preincubated for 2 hrs followed by LPS stimulaton measured after 22 hrs by ELISA relative to control
Type: functional
Outcome Measure: inhibition at 6 µM

1. CN1C/C(=C\c2ccncc2)C(=O)/C(=C/c2ccccc2C(F)(F)F)C1 = < 30%
2. CN1C/C(=C\c2cccnc2)C(=O)/C(=C/c2ccccc2C(F)(F)F)C1 = < 30%
3. CN1C/C(=C\c2ccncc2)C(=O)/C(=C/c2cc([N+](=O)[O-])ccc2F)C1 = < 30%
4. O=C1/C(=C/c2cccnc2)CN(S(=O)(=O)c2ccc(C(F)(F)F)cc2)C/C1=C\c1ccccc1C(F)(F)F = ≤ 15%

Now for the molecule whose inhibition at 6 µM we want.
Record summary for "CN1C/C(=C\c2ccc(C(F)(F)F)cc2)C(=O)/C(=C/c2cccnc2)C1" : reported inhibition at 6 µM = < 30%

* * *

Tested on: HepG2
Assay Remarks: Cytotoxicity against human HepG2 cells assessed as reduction in cell viability incubated for 24 hrs by MTT assay
Format: functional, cell-based
Condition Details: HepG2, 24 h
Outcome Measure: pIC50
One number for each entry, as −log10 of the molar value.

See these solved cases before continuing.
1. O=C1/C(=C/c2cccnc2)CN(S(=O)(=O)c2ccccc2)C/C1=C\c1ccccc1F = 5.09
2. CN1C/C(=C\c2cccnc2)C(=O)/C(=C/c2ccccc2C(F)(F)F)C1 = 5.59
3. COc1ccc(/C=C2\CN(C)C/C(=C\c3cccnc3)C2=O)c(OC)c1OC = 5.29

Could I get pIC50 for every one of these entries?
1. CN1C/C(=C\c2cccnc2)C(=O)/C(=C/c2cc([N+](=O)[O-])ccc2F)C1
2. COc1cc(/C=C2\CN(C)C/C(=C\c3ccncc3)C2=O)cc(OC)c1
3. O=C1/C(=C/c2cccnc2)CN(S(=O)(=O)c2ccc([N+](=O)[O-])cc2)C/C1=C\c1ccccc1F
4. O=C1/C(=C/c2cccnc2)CN(S(=O)(=O)c2ccc(Cl)cc2)C/C1=C\c1ccccc1C(F)(F)F
5. O=C1/C(=C/c2cccnc2)CN(S(=O)(=O)c2ccc(Br)cc2)C/C1=C\c1ccccc1F
6. CN1C/C(=C\c2ccncc2)C(=O)/C(=C/c2ccc(C#N)cc2)C1

Output line:
1. 5.18
2. 5.02
3. 4.89
4. 5.44
5. 5.06
6. 4.86

Known value: HepG2 pIC50 of the compound "O=C1/C(=C/c2cccnc2)CNC/C1=C\c1ccccc1C(F)(F)F" equals 5.30

* * *

Test system: L02
Assay Remarks: Cytotoxicity against human LO2 cells assessed as reduction in cell viability incubated for 24 hrs by MTT assay
Assay type: cell-based
Condition Details: L02, 24 h
Exercise: for every item that follows, state its recorded IC50.

1) O=C1/C(=C/c2cccnc2)CN(S(=O)(=O)c2ccccc2)C/C1=C\c1ccccc1C(F)(F)F = 12.5 µM

Go through the list and state IC50 for each entry.
1. O=C1/C(=C/c2ccncc2)CN(S(=O)(=O)c2ccc(C(F)(F)F)cc2)C/C1=C\c1ccccc1F
2. O=C1/C(=C/c2cccnc2)CNC/C1=C\c1ccccc1C(F)(F)F
3. O=C1/C(=C/c2ccccc2F)CNC/C1=C\c1ccccc1F
4. CN1C/C(=C\c2cccnc2)C(=O)/C(=C/c2ccccc2F)C1
5. COc1ccc(/C=C2\CN(C)C/C(=C\c3ccncc3)C2=O)c(OC)c1OC
6. O=C1/C(=C/c2cccnc2)CN(S(=O)(=O)c2ccccc2)C/C1=C\c1ccccc1F
7. O=C1/C(=C/c2cccnc2)CN(S(=O)(=O)c2ccc(F)cc2)C/C1=C\c1ccccc1F
8. CN1C/C(=C\c2ccncc2)C(=O)/C(=C/c2ccc(C#N)cc2)C1

Output line:
["18.6 µM", "11.3 µM", "10.2 µM", "15.9 µM", "15.6 µM", "15.3 µM", "15.6 µM", "14 µM"]

Your task in this section: give IC50 for each listed record.
1. O=C1/C(=C/c2cccnc2)CN(S(=O)(=O)c2ccc([N+](=O)[O-])cc2)C/C1=C\c1ccccc1F
2. O=C1/C(=C/c2ccncc2)CN(S(=O)(=O)c2ccc(F)cc2)C/C1=C\c1ccccc1F
3. COc1cc(/C=C2\CN(C)C/C(=C\c3cccnc3)C2=O)cc(OC)c1OC

Output line:
["> 20 µM", "15.6 µM", "14.4 µM"]

All figures here come from ChEMBL document CHEMBL4339189.
